Target: FGFR2 WT (Homo sapiens)
Construct: purchased Invitrogen
Sequence (P21802 22-821): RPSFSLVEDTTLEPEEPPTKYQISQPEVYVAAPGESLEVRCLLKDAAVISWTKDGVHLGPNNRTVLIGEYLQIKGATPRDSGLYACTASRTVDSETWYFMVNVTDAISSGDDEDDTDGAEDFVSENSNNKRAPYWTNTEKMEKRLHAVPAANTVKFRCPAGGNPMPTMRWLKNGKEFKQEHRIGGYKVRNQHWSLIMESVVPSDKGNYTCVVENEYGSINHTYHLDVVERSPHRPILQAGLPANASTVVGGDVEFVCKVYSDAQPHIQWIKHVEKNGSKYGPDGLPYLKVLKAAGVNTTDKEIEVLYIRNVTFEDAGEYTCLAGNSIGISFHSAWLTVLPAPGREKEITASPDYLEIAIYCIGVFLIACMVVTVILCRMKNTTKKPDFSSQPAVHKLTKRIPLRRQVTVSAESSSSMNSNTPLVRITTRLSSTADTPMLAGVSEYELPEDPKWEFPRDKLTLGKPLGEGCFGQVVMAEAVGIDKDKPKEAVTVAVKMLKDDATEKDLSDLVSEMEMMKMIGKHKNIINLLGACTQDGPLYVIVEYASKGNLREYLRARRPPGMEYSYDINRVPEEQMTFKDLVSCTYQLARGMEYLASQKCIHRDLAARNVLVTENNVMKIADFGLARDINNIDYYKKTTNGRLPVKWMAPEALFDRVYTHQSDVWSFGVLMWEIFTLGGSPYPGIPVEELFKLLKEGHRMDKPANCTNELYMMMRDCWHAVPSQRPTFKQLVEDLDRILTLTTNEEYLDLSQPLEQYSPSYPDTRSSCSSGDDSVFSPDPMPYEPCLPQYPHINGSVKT
Assay: Inhibitory activity against wild-type and mutant FGFR, HTRF KinEASE-TK
Assay type: biochemical
Result type: IC50 (nM)
Answer format: numeric, nM implied, no suffix.

Q: Which IC50 value belongs to Cc1[nH]nc2c1N=C(c1ccccc1Cl)c1cnc(N3CCOCC3)cc1N2 [Compound 29] ?
Result: 0.5

###

Target: FGFR2(h) (Homo sapiens)
Sequence (P21802 22-821): as above
Test: Inhibitory activity against FGFR wild-type enzyme, [γ-33P]-ATP filter assay
Assay type: biochemical
Conditions: 10 μM ATP
Experimental: (1) Preparation of the Compound Plate The compounds were each dissolved in DMSO to prepare stock solutions with a maximum concentration of 500 μM. […] The reaction was initiated by the addition of 10 mM magnesium acetate and 10μM [γ−^33P]−ATP. […] 10 μL of the reaction solution was pipetted onto P30 filter paper, washed 3 times with 75 mM phosphoric acid solution for 5 min each time, dried and counted by scintillation. […]
Result type: pIC50
Scale for pIC50: -log10 of concentration given in mol/L; no unit attached.

Q: What value of measured pIC50 is listed for "Cc1[nH]nc2c1N=C(c1ccccc1Cl)c1cnc(N3CCOCC3)cc1N2" ?
Result: 8.52

###

Target: FGFR3(h) (Homo sapiens, UniProt P22607)
Sequence (P22607 23-806): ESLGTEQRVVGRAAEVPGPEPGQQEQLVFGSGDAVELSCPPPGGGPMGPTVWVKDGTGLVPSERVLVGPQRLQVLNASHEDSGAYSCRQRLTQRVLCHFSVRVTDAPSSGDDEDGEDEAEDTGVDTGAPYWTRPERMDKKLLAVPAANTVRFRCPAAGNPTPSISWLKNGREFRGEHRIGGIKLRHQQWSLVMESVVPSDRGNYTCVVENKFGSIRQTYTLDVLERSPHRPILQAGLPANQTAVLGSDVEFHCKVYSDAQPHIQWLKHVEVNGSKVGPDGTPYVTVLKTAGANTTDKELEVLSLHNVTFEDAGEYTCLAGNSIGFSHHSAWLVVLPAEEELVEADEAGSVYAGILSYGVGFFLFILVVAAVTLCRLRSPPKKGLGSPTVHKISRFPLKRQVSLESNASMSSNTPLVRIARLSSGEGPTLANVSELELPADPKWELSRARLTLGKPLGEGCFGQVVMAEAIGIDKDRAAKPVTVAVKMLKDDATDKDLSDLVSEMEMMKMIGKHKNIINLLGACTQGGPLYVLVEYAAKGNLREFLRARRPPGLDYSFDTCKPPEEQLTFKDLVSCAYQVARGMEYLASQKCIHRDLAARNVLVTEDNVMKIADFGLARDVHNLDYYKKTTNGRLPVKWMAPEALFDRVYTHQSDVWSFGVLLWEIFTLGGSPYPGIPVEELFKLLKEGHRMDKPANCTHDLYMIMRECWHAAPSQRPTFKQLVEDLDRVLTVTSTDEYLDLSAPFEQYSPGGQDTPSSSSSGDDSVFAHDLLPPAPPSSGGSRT
Result type: IC50 (nM)
Report as a plain number; the unit nM is understood.

Q: Param item = "Cc1[nH]nc2c1N=C(c1ccccc1Cl)c1cnc(N3CCOCC3)cc1N2" ; retrieve measured IC50.
Result: 5
